These data points were gathered from ChEMBL document CHEMBL4311942.

- Tested on: Erythrocyte
- experimental_details: Haemolytic activity in human erythrocytes assessed as lowest concentration causing 5% hemolysis after 1 hr
- Format: ADME, cell-based
Where a SMILES comes first, the peptide text is derived from it.
Readings of MHC for the listed compounds

Consider the reported MHC for these compounds:
[[record]]
compound = "CC(C)C[C@H](NC(=O)[C@H](Cc1c[nH]c2ccccc12)NC(=O)[C@H](CCCCN)NC(=O)[C@H](CCCNC(=N)N)NC(=O)[C@@H](NC(=O)[C@H](Cc1c[nH]c2ccccc12)NC(=O)[C@H](CCCCN)NC(=O)[C@H](CCCNC(=N)N)NC(=O)[C@H](CC(C)C)NC(=O)[C@H](Cc1c[nH]c2ccccc12)NC(=O)[C@@H](N)CCCNC(=N)N)[C@@H](C)O)C(=O)N[C@@H](CCCCN)C(N)=O (H-RWLRKWTRKWLK-NH2)"
test_readout = "MHC"
result = "> 128 µM"

[[record]]
compound = "C[C@@H](O)[C@H](NC(=O)[C@H](CCCNC(=N)N)NC(=O)[C@H](Cc1c[nH]c2ccccc12)NC(=O)[C@H](CCCNC(=N)N)NC(=O)[C@@H](NC(=O)[C@H](CCCNC(=N)N)NC(=O)[C@H](Cc1c[nH]c2ccccc12)NC(=O)[C@H](CCCNC(=N)N)NC(=O)[C@@H](NC(=O)[C@H](CCCNC(=N)N)NC(=O)[C@@H](N)Cc1c[nH]c2ccccc12)[C@@H](C)O)[C@@H](C)O)C(=O)N[C@@H](CCCNC(=N)N)C(N)=O (H-WRTRWRTRWRTR-NH2)"
test_readout = "MHC"
result = "> 128 µM"


Next compound, please.
Sample CC[C@H](C)[C@H](NC(=O)[C@H](CCCNC(=N)N)NC(=O)[C@H](Cc1c[nH]c2ccccc12)NC(=O)[C@H](CCCNC(=N)N)NC(=O)[C@@H](NC(=O)[C@H](CCCCN)NC(=O)[C@H](Cc1c[nH]c2ccccc12)NC(=O)[C@H](CCCNC(=N)N)NC(=O)[C@@H](NC(=O)[C@H](CCCNC(=N)N)NC(=O)[C@@H](N)Cc1c[nH]c2ccccc12)[C@@H](C)CC)[C@@H](C)O)C(=O)N[C@@H](CCCCN)C(N)=O (H-WRIRWKTRWRIK-NH2) — what was its MHC? > 128 µM

* * *

- Tested on: Staphylococcus aureus
- experimental_details: Antibacterial activity against Staphylococcus aureus ATCC 25923 incubated for 18 to 24 hrs by broth microdilution method
- Assay type: functional
test_readout: MIC (µM)
The figure you give is taken to be in µM; do not add the unit.

Recall the recorded MIC for CC[C@H]1OC(=O)[C@H](C)[C@@H](O[C@H]2C[C@@](C)(OC)[C@@H](O)[C@H](C)O2)[C@H](C)[C@@H](O[C@@H]2O[C@H](C)C[C@H](N(C)C)[C@H]2O)[C@](C)(O)C[C@@H](C)C(=O)[C@H](C)[C@@H](O)[C@]1(C)O with Staphylococcus aureus and state it. 0.5

Moving on to CC(C)(O/N=C(\C(=O)N[C@@H]1C(=O)N2C(C(=O)[O-])=C(C[n+]3ccccc3)CS[C@H]12)c1csc(N)n1)C(=O)O 32

* * *

- experimental_details: Cytotoxicity against mouse RAW264.7 cells assessed as cell survival at <= 32 uM after 24 hrs by MTT assay relative to control
- Assay type: cell-based
- conditions: RAW264.7 cells, up to 32 µM, read-out: Activity
Where a SMILES comes first, the peptide text is derived from it.
test_readout: viability at 24 h

// below: answered compounds
[[record]]
compound = "CC(C)C[C@H](NC(=O)[C@H](CCCNC(=N)N)NC(=O)[C@H](Cc1c[nH]c2ccccc12)NC(=O)[C@H](CCCNC(=N)N)NC(=O)[C@@H](NC(=O)[C@H](CCCCN)NC(=O)[C@H](Cc1c[nH]c2ccccc12)NC(=O)[C@H](CCCNC(=N)N)NC(=O)[C@H](CC(C)C)NC(=O)[C@H](Cc1c[nH]c2ccccc12)NC(=O)[C@@H](N)CCCNC(=N)N)[C@@H](C)O)C(=O)N[C@@H](CCCCN)C(N)=O (H-RWLRWKTRWRLK-NH2)"
result = "≥ 70%"

[[record]]
compound = "CC(C)C[C@H](NC(=O)[C@H](CCCNC(=N)N)NC(=O)[C@H](CCCCN)NC(=O)[C@H](CCCNC(=N)N)NC(=O)[C@@H](NC(=O)[C@H](CCCCN)NC(=O)[C@H](CCCCN)NC(=O)[C@H](CCCNC(=N)N)NC(=O)[C@H](CC(C)C)NC(=O)[C@H](CCCNC(=N)N)NC(=O)[C@@H](N)CCCNC(=N)N)[C@@H](C)O)C(=O)N[C@@H](CCCCN)C(N)=O (H-RRLRKKTRKRLK-NH2)"
result = "≥ 70%"


I would be grateful if you could share the reported viability at 24 h for CC(C)C[C@H](NC(=O)[C@H](CCCNC(=N)N)NC(=O)[C@H](Cc1c[nH]c2ccccc12)NC(=O)[C@H](CCCNC(=N)N)NC(=O)[C@@H](NC(=O)[C@H](CCCCN)NC(=O)[C@H](Cc1c[nH]c2ccccc12)NC(=O)[C@H](CCCNC(=N)N)NC(=O)[C@H](CC(C)C)NC(=O)[C@H](CCCNC(=N)N)NC(=O)[C@@H](N)Cc1c[nH]c2ccccc12)[C@@H](C)O)C(=O)N[C@@H](CCCCN)C(N)=O (H-WRLRWKTRWRLK-NH2) . ≥ 70%

* * *

- experimental_details: Therapeutic index, ratio of MHC for human RBC to geometric mean of peptide MIC for Escherichia coli ATCC 25922
- Format: toxicity
- conditions: pooled result: one value given for 6 cell lines, strains, targets or settings, read-out: TI
Where a SMILES comes first, the peptide text is derived from it.
Kindly return TRUE if reported selectivity ratio is no lower than 40; return FALSE if it is lower.

[[record]]
compound = "CC(C)C[C@H](NC(=O)[C@H](CCCNC(=N)N)NC(=O)[C@H](Cc1c[nH]c2ccccc12)NC(=O)[C@H](CCCNC(=N)N)NC(=O)[C@@H](NC(=O)[C@H](CCCNC(=N)N)NC(=O)[C@H](Cc1c[nH]c2ccccc12)NC(=O)[C@H](CCCNC(=N)N)NC(=O)[C@H](CC(C)C)NC(=O)[C@H](CCCNC(=N)N)NC(=O)[C@@H](N)Cc1c[nH]c2ccccc12)[C@@H](C)O)C(=O)N[C@@H](CCCNC(=N)N)C(N)=O (H-WRLRWRTRWRLR-NH2)"
group = "TRUE"

[[record]]
compound = "CC(C)[C@H](NC(=O)[C@H](CCCNC(=N)N)NC(=O)[C@H](Cc1c[nH]c2ccccc12)NC(=O)[C@H](CCCNC(=N)N)NC(=O)[C@@H](NC(=O)[C@H](CCCCN)NC(=O)[C@H](Cc1c[nH]c2ccccc12)NC(=O)[C@H](CCCNC(=N)N)NC(=O)[C@@H](NC(=O)[C@H](CCCNC(=N)N)NC(=O)[C@@H](N)Cc1c[nH]c2ccccc12)C(C)C)C(C)C)C(=O)N[C@@H](CCCCN)C(N)=O (H-WRVRWKVRWRVK-NH2)"
group = "TRUE"

[[record]]
compound = "CC(C)C[C@H](NC(=O)[C@H](CCCNC(=N)N)NC(=O)[C@H](CCCCN)NC(=O)[C@H](CCCNC(=N)N)NC(=O)[C@@H](NC(=O)[C@H](CCCCN)NC(=O)[C@H](CCCCN)NC(=O)[C@H](CCCNC(=N)N)NC(=O)[C@H](CC(C)C)NC(=O)[C@H](CCCNC(=N)N)NC(=O)[C@@H](N)CCCNC(=N)N)[C@@H](C)O)C(=O)N[C@@H](CCCCN)C(N)=O (H-RRLRKKTRKRLK-NH2)"
group = "FALSE"

[[record]]
compound = "CC(C)C[C@H](NC(=O)[C@H](CCCNC(=N)N)NC(=O)[C@H](CCCCN)NC(=O)[C@H](CCCNC(=N)N)NC(=O)[C@@H](NC(=O)[C@H](Cc1c[nH]c2ccccc12)NC(=O)[C@H](CCCCN)NC(=O)[C@H](CCCNC(=N)N)NC(=O)[C@H](CC(C)C)NC(=O)[C@H](Cc1c[nH]c2ccccc12)NC(=O)[C@@H](N)CCCNC(=N)N)[C@@H](C)O)C(=O)N[C@@H](CCCCN)C(N)=O (H-RWLRKWTRKRLK-NH2)"
group = "FALSE"

[[record]]
compound = "CC(C)C[C@H](NC(=O)[C@H](CCCNC(=N)N)NC(=O)[C@H](Cc1c[nH]c2ccccc12)NC(=O)[C@H](CCCNC(=N)N)NC(=O)[C@@H](NC(=O)[C@H](Cc1c[nH]c2ccccc12)NC(=O)[C@H](Cc1c[nH]c2ccccc12)NC(=O)[C@H](CCCNC(=N)N)NC(=O)[C@H](CC(C)C)NC(=O)[C@H](CCCNC(=N)N)NC(=O)[C@@H](N)CCCNC(=N)N)[C@@H](C)O)C(=O)N[C@@H](CCCCN)C(N)=O (H-RRLRWWTRWRLK-NH2)"
group = "TRUE"

[[record]]
compound = "CC(C)C[C@H](NC(=O)[C@H](CCCNC(=N)N)NC(=O)[C@H](CCCCN)NC(=O)[C@H](Cc1c[nH]c2ccccc12)NC(=O)[C@@H](NC(=O)[C@H](CCCCN)NC(=O)[C@H](CCCCN)NC(=O)[C@H](Cc1c[nH]c2ccccc12)NC(=O)[C@H](CC(C)C)NC(=O)[C@H](CCCNC(=N)N)NC(=O)[C@@H](N)CCCNC(=N)N)[C@@H](C)O)C(=O)N[C@@H](Cc1c[nH]c2ccccc12)C(N)=O (H-RRLWKKTWKRLW-NH2)"
group = "FALSE"

[[record]]
compound = "CC(C)C[C@H](NC(=O)[C@H](CCCNC(=N)N)NC(=O)[C@H](CCCCN)NC(=O)[C@H](Cc1c[nH]c2ccccc12)NC(=O)[C@@H](NC(=O)[C@H](CCCCN)NC(=O)[C@H](CCCCN)NC(=O)[C@H](CCCNC(=N)N)NC(=O)[C@H](CC(C)C)NC(=O)[C@H](CCCNC(=N)N)NC(=O)[C@@H](N)CCCNC(=N)N)[C@@H](C)O)C(=O)N[C@@H](Cc1c[nH]c2ccccc12)C(N)=O (H-RRLRKKTWKRLW-NH2)"
group = "FALSE"

[[record]]
compound = "CC(C)C[C@H](NC(=O)[C@H](CCCNC(=N)N)NC(=O)[C@@H](NC(=O)[C@H](CCCNC(=N)N)NC(=O)[C@@H](NC(=O)[C@H](CCCCN)NC(=O)[C@@H](NC(=O)[C@H](CCCNC(=N)N)NC(=O)[C@H](CC(C)C)NC(=O)[C@H](CCCNC(=N)N)NC(=O)[C@@H](N)C(C)C)C(C)C)[C@@H](C)O)C(C)C)C(=O)N[C@@H](CCCCN)C(N)=O (H-VRLRVKTRVRLK-NH2)"
group = "FALSE"


Reported selectivity ratio reaches at least 40 for CC(C)C[C@H](NC(=O)[C@H](CCCNC(=N)N)NC(=O)[C@H](Cc1c[nH]c2ccccc12)NC(=O)[C@H](CCCNC(=N)N)NC(=O)[C@H](CC(C)C)NC(=O)[C@H](CCCNC(=N)N)NC(=O)[C@H](Cc1c[nH]c2ccccc12)NC(=O)[C@H](CCCNC(=N)N)NC(=O)[C@H](CC(C)C)NC(=O)[C@H](CCCNC(=N)N)NC(=O)[C@@H](N)Cc1c[nH]c2ccccc12)C(=O)N[C@@H](CCCNC(=N)N)C(N)=O (H-WRLRWRLRWRLR-NH2) ? TRUE
